- TARGET ENTITY: Sodium-dependent serotonin transporter (Homo sapiens)
- Sequence (P31645 whole entry): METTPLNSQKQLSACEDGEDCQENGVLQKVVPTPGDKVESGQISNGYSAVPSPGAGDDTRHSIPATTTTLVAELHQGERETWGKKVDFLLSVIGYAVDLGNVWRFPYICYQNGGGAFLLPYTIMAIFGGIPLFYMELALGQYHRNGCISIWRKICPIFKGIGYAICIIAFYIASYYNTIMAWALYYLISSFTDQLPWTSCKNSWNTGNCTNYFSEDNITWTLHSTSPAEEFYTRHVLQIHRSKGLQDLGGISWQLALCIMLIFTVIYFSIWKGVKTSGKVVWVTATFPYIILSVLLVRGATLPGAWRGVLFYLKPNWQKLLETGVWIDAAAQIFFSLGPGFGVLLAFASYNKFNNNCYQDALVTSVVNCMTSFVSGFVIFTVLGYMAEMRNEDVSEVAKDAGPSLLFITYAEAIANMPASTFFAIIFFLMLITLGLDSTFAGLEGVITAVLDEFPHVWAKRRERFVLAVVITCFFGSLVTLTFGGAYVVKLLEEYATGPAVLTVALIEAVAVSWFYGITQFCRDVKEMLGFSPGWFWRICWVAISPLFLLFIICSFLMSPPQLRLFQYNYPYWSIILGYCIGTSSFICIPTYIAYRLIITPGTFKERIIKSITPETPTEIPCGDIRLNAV
pIC50: −log10 of the molar value.
Hi, to clarify the labels: MET covers pIC50 from 3 upward, NOT MET covers anything below 3.

# INPUT SMILES, ASSIGNED LABEL
rows = [
    ("CCc1ccc2c(c1)[C@]13CCCC[C@@H]1[C@H](C2)N(C)CC3", "MET"),
    ("CCN1CC[C@@]23CCCC[C@@H]2[C@@H]1Cc1ccccc13", "NOT MET"),
    ("CN1CC[C@@]23CCCC[C@@H]2[C@@H]1Cc1ccc(C(N)=O)cc13", "MET"),
    ("COC(=O)c1ccc2c(c1)[C@]13CCCC[C@@H]1[C@H](C2)N(C)CC3", "MET"),
    ("CNC(=O)c1ccc2c(c1)[C@]13CCCC[C@@H]1[C@H](C2)N(C)CC3", "MET"),
    ("c1ccc2c(c1)C[C@@H]1NCC[C@]23CCCC[C@H]13", "NOT MET"),
    ("CN1CC[C@@]23CCCC[C@@H]2[C@@H]1Cc1ccc(O)cc13", "MET"),
]

---

- TARGET ENTITY: Sodium-dependent dopamine transporter (Homo sapiens, UniProt Q01959)
- Sequence (Q01959 whole entry): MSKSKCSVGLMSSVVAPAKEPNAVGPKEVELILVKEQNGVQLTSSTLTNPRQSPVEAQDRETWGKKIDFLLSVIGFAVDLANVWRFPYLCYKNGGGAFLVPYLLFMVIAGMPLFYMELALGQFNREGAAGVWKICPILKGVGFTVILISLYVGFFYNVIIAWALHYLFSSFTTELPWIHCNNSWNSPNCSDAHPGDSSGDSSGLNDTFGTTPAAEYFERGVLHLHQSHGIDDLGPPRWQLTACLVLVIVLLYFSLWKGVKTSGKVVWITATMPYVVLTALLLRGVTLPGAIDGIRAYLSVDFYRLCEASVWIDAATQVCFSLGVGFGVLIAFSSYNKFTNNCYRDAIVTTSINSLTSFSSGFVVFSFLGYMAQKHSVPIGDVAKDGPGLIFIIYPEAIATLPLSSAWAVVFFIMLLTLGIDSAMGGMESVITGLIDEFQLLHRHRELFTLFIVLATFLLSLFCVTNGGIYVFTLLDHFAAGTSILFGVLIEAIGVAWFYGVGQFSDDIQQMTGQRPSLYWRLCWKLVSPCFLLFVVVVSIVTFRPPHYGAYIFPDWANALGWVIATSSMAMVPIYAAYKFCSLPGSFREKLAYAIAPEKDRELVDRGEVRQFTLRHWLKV
- ASSAY: Inhibition of DAT (unknown origin) at 10 uM relative to control
The source made the active and inactive calls. The calls are words filed in the database; no cut-off is given here.
OBSERVED PROPERTY: inhibition

# INPUT SMILES, OBSERVED
rows = [
    ("CCN1CC[C@@]23CCCC[C@@H]2[C@@H]1Cc1ccccc13", "inactive"),
    ("CN1CC[C@@]23CCCC[C@@H]2[C@@H]1Cc1ccc(NC=O)cc13", "6%"),
    ("CN1CC[C@@]23CCCC[C@@H]2[C@@H]1Cc1ccccc13", "15%"),
    ("CC(=O)c1ccc2c(c1)[C@]13CCCC[C@@H]1[C@H](C2)N(C)CC3", "inactive"),
    ("Cc1ccc2c(c1)[C@]13CCCC[C@@H]1[C@H](C2)N(C)CC3", "inactive"),
    ("CCc1ccc2c(c1)[C@]13CCCC[C@@H]1[C@H](C2)NCC3", "inactive"),
    ("CN1CC[C@@]23CCCC[C@@H]2[C@@H]1Cc1ccc(N)cc13", "11%"),
    ("CCc1ccc2c(c1)[C@]13CCCC[C@@H]1[C@H](C2)N(CC)CC3", "5%"),
    ("CCc1ccc2c(c1)[C@]13CCCC[C@@H]1[C@H](C2)N(C)CC3", "13%"),
    ("CNC(=O)c1ccc2c(c1)[C@]13CCCC[C@@H]1[C@H](C2)N(C)CC3", "15%"),
    ("CN1CC[C@@]23CCCC[C@@H]2[C@@H]1Cc1ccc(C(=O)NC2CC2)cc13", "6%"),
    ("c1ccc2c(c1)C[C@@H]1NCC[C@]23CCCC[C@H]13", "20%"),
]
